# assay_target: Proto-oncogene tyrosine-protein kinase Src (Homo sapiens)
# Sequence (P12931 2-536 limits assumed): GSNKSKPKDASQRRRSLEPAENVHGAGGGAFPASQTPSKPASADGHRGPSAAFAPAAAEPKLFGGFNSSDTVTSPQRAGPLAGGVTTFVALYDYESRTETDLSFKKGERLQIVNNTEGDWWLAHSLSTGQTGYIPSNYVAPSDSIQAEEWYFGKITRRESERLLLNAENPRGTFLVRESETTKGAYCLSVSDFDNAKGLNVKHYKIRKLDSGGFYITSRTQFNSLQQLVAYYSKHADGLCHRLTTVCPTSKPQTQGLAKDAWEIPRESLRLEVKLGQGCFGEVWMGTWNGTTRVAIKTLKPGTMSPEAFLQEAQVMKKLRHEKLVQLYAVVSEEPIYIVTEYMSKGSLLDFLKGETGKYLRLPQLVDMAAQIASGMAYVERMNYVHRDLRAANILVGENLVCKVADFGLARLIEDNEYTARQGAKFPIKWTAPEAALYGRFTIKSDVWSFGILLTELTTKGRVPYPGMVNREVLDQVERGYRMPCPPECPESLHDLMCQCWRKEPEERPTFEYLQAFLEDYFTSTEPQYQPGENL
reported_endpoint: IC50 (µM)
Give bare numbers, in µM.

(Q) System Proto-oncogene tyrosine-protein kinase Src (Homo sapiens). Read-out IC50. Item `Cc1[nH]c(=O)c2c(ccc3nc(Nc4c(Cl)cccc4Cl)[nH]c32)c1C` . Report value.
(A) 0.012

---

# assay_target: UniProtKB P06239
# Sequence (P06239 whole entry): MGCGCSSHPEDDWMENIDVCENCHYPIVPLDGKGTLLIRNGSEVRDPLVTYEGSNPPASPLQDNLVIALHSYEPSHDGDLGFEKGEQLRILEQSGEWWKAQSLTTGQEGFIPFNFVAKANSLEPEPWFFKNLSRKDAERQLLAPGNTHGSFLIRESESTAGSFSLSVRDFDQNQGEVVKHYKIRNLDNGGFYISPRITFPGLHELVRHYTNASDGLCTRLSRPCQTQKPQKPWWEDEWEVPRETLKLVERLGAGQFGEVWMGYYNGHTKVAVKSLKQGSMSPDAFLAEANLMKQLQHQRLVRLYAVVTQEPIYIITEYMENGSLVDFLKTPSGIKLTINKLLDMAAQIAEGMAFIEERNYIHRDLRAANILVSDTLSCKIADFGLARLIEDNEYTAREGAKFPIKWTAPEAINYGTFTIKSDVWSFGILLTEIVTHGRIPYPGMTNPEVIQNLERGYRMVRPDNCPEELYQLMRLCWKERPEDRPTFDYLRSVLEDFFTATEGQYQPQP
# assay_explanation: Inhibitory activity against recombinant human p56 Lck tyrosine kinase
reported_endpoint: IC50 (nM)
Give bare numbers, in nM.

Here is how some compounds turned out for IC50.
Cc1cccc(Cl)c1Nc1nc2c(ccc3c(C)c(C)nc(O)c32)[nH]1
27
Cc1[nH]c(=O)c2c(ccc3nc(Nc4c(Cl)cccc4Cl)[nH]c32)c1C
26
CC1(C)C(=O)NC(=O)c2c1ccc1[nH]c(Cc3c(Cl)cccc3Cl)nc21
9600
CC(C)CC1(C)C(=O)NC(=O)c2c1ccc1nc(Nc3c(Cl)cccc3Cl)[nH]c21 (stereo not given)
5100
Cc1cccc(C)c1Nc1nc2ccc3c(c2[nH]1)C(=O)NC(=O)C3(C)C
460

Quick request: IC50 for each listed item, please.
1. Cc1nc(O)c2c(ccc3[nH]c(Nc4c(Cl)cc(Cl)cc4Cl)nc32)c1C
2. Cc1nc(O)c2c(ccc3[nH]c(Nc4c(Br)cc(Br)cc4Br)nc32)c1C
3. CC1(C)C(=O)NC(=O)c2c1ccc1nc(Nc3c(Br)cc(Br)cc3Br)[nH]c21

(A)
1: 18; 2: 25; 3: 600

Quick request: IC50 for each listed item, please.
1. Cc1[nH]c(=O)c2c(ccc3[nH]c(Nc4ccccc4Cl)nc32)c1C
2. CCC1(CC)C(=O)NC(=O)c2c1ccc1[nH]c(Nc3c(Cl)cccc3Cl)nc21
3. CC1(C)C(=O)NC(=O)c2c1ccc1nc(Nc3c(Cl)cccc3Cl)[nH]c21

(A)
150
5900
460
